- Species: Homo sapiens
- protocol-notes: Selectivity for ROCK1 over RSK1
metric: Selectivity ratio

Example compounds with recorded Selectivity ratio:
>  <smiles-record>
CCn1c(-c2nonc2N)nc2cnc(Oc3cccc(NC(=O)c4ccc(OCCN(C)C)cc4)c3)cc21

>  <Selectivity ratio>
> 80

$$$$
>  <smiles-record>
CCn1c(-c2nonc2N)nc2cnc(Oc3cccc(NC(=O)c4ccc(CN5CCOCC5)cc4)c3)cc21

>  <Selectivity ratio>
> 120

$$$$
>  <smiles-record>
CCn1c(-c2nonc2N)nc2cnc(Oc3cccc(NC(=O)c4ccc(CN)cc4)c3)cc21

>  <Selectivity ratio>
> 70

$$$$

For the compound `CCn1c(-c2nonc2N)nc2cnc(Oc3cccc(NC(=O)c4ccc(N5CCOCC5)cc4)c3)cc21` , what Selectivity ratio is on record? > 60

For the compound `CCn1c(-c2nonc2N)nc2cnc(Oc3ccc(NC(C)=O)cc3)cc21` , what Selectivity ratio is on record? 12

For the compound `CCn1c(-c2nonc2N)nc2cnc(Oc3cccc(NC(=O)c4ccc(CN(C)C)cc4)c3)cc21` , what Selectivity ratio is on record? > 80

For the compound `CCn1c(-c2nonc2N)nc2cnc(Oc3ccccc3)cc21` , what Selectivity ratio is on record? 10

Sourced from ChEMBL document CHEMBL1139215
